Assay: compounds displacing fluorescent DNA intercalator, primary screen, artefact control for HCV NS3 helicase inhibitor project, biochemical, FID fluorescence (AID 1845);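 also: 0% = vehicle and 100% = reference compound; higher means more ethidium bromide displaced from hairpin DNA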
Conditions: DNA fluorescent intercalator displacement, at 7.9 µM, stronger effect = higher value
Out of some 290,000 compounds screened, about 490 (0.17%) were called active. Only a selection was taken, and actives are over-represented in it overall.
Measured inhibition of individual entries
All answers are understood in %, so give the number only.

Solved entries:
compound	inhibition / %
O=S(=O)(NCC1CC1)c1ccc(F)c(Cl)c1	-2.55
O=C(O)CCCN1C(=O)C2C3c4ccccc4C(c4ccccc43)[C@@H]2C1=O (stereo partly specified)	-12.3
CCn1nnnc1SCC(=O)Nc1ccc(N(C)C)cc1	-4.25
CC(=O)c1cc(CN2CCC(n3nccc3NC(=O)c3ccccc3Cl)CC2)cs1	-5.43

Identify measured inhibition corresponding to O=C(CNC(=O)[C@@H]1Cc2ccccc2CN1)NC1CCCCC1 0.62

Identify measured inhibition corresponding to Cc1sc2nc(SCCO)n(-c3ccccc3)c(=O)c2c1C -17.8

----------
Experiment: compounds displacing fluorescent DNA intercalator, primary screen, artefact control for HCV NS3 helicase inhibitor project, biochemical, FID fluorescence (AID 1845);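 also: 0% = vehicle and 100% = reference compound; higher means more ethidium bromide displaced from hairpin DNA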
Conditions: DNA fluorescent intercalator displacement, at 7.9 µM, stronger effect = higher value
The whole screen tested about 290,000 compounds, of which about 490 (0.17%) were called active. The entries come from a sample that favours actives as a whole.
recorded-metric: inhibition (%)
All answers are understood in %, so give the number only.

Solved entries:
molecule	measurement-units	inhibition
COc1ccc(CNC(=O)C(c2ccc(O)cc2)N(Cc2ccco2)C(=O)c2snc(C(N)=O)c2N)cc1 (configuration not stated)	%	-26.1
CCOC(=O)c1c(NC(=O)C2CCN(S(=O)(=O)c3ccc(Cl)cc3)CC2)sc2c1CCCC2	%	43.9

Identify measured inhibition corresponding to COc1ccccc1/C=N/Nc1nc(C)c(C(C)=O)s1 -19.2

Identify measured inhibition corresponding to O=C(Cc1ccc(Cl)cc1)NC1CCS(=O)(=O)C1 (configuration not stated) -2.95

Identify measured inhibition corresponding to CN1CCN(NC(=O)Nc2ccc(Br)cc2)CC1 -5.13

Identify measured inhibition corresponding to NC(=O)C1CC(=O)N(c2ccc(OCC(=O)NCc3ccccc3)cc2)C1 (configuration not stated) -4.26

Identify measured inhibition corresponding to Cc1cc(C)c2nc(SCCC#N)nc(C)c2c1 -17

Identify measured inhibition corresponding to Cc1ccc(S(=O)(=O)NC2CCCCCC2)cc1C(N)=O -7.28

Identify measured inhibition corresponding to Cc1cc(C)c2c(n1)nn1c(N3CCOCC3)cc(C)nc21 -11.1

Identify measured inhibition corresponding to CCOC(=O)c1c(NC(=S)NC(=O)c2ccco2)sc2c1CCCC2 0.98

Identify measured inhibition corresponding to CCC(C)(C)NC(=O)C(c1cccc(OC)c1OC)N(CC(C)C)C(=O)CCC(=O)Nc1cc(C)on1 (configuration not stated) -44.5

----------
Measured inhibition of individual entries
Test: compounds displacing fluorescent DNA intercalator, primary screen, artefact control for HCV NS3 helicase inhibitor project, biochemical, FID fluorescence (AID 1845);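 also: 0% = vehicle and 100% = reference compound; higher means more ethidium bromide displaced from hairpin DNA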
Conditions: DNA fluorescent intercalator displacement, at 7.9 µM, stronger effect = higher value
Out of some 290,000 compounds screened, about 490 (0.17%) were called active. The list comes from a sample in which actives are over-represented; it also holds close analogues and randomly drawn compounds.
All answers are understood in %, so give the number only.

compound	result-number
COc1ccccc1N(CC(=O)Nc1ccccc1C(=O)N1CCCC1)S(C)(=O)=O	-10.3
COc1ccc(CCNC(=O)CN2C(=O)CCSc3ccccc32)c(OC)c1	-32
COc1ccc2cc(C(=O)C3CCCN(C(=O)c4sc(C)nc4C)C3)ccc2c1 (stereo not given)	-47.1
O=C(NCC(=O)N1CCN(c2ccccc2O)CC1)c1ccc2ccccc2c1	-38.7
Cn1c(=O)n(C)c2cc(S(=O)(=O)Nc3ccc(F)cc3)ccc21	-0.97
COc1ccccc1NC(=O)CCC(=O)OC(C)C(=O)c1ccccc1 (stereo not given)	-17.2

Identify measured inhibition corresponding to O=C(N/N=C/c1ccc(OCC2COCCO2)cc1)c1ccc(Br)cc1 (stereo not given) -19.9

Identify measured inhibition corresponding to O=C(NCCN1CCN(C(=O)c2cccc([N+](=O)[O-])c2)CC1)C(=O)NCc1ccc(Cl)cc1 -23.5

Identify measured inhibition corresponding to COc1cccc(N(CC(=O)NC2CCCC2)C(=O)CCCC(=O)Nc2ccccn2)c1 -30.3

Identify measured inhibition corresponding to COc1ccc(-c2noc(C(C)NS(=O)(=O)c3ccc(NC(C)=O)cc3)n2)cc1 (stereo not given) -8
